- System: Klebsiella pneumoniae
- protocol: ≥ marks a high value that may be exact or a test limit, other limits are often not marked, values filed in µg/mL are converted to µM
assay metric: MIC

- CC(C)C[C@H](NC(=O)[C@H](C)NC(=O)CNC(=O)[C@H](CC(C)C)NC(=O)[C@@H](N)Cc1ccccc1)C(=O)N[C@@H](Cc1ccccc1)C(=O)N[C@@H](CCCCN)C(=O)N[C@H](C(=O)N[C@@H](Cc1c[nH]c2ccccc12)C(=O)N[C@@H](CO)C(=O)N[C@@H](CCCCN)C(=O)O)C(C)C: > 154 µM
- CC(C)C[C@H](NC(=O)[C@H](C)NC(=O)CN)C(=O)N[C@@H](Cc1ccccc1)C(=O)N[C@@H](CCCCN)C(=O)N[C@H](C(=O)N[C@@H](C)C(=O)N[C@@H](CO)C(=O)N[C@@H](CCCCN)C(=O)N[C@H](C(=O)N[C@@H](CC(C)C)C(=O)N1CCC[C@H]1C(=O)N[C@@H](CO)C(=O)O)C(C)C)C(C)C: > 152 µM
- CC[C@H](C)[C@H](NC(=O)[C@H](CC(C)C)NC(=O)CNC(=O)CNC(=O)[C@H](CC(C)C)NC(=O)[C@@H](N)Cc1ccccc1)C(=O)N[C@@H](CCCCN)C(=O)N[C@@H](Cc1c[nH]c2ccccc12)C(=O)N[C@@H](Cc1c[nH]c2ccccc12)C(=O)N1CCC[C@H]1C(=O)N[C@@H](Cc1c[nH]c2ccccc12)C(=O)N[C@@H](CCCN=C(N)N)C(=O)N[C@@H](CCCN=C(N)N)C(N)=O: > 146 µM
- CC(C)C[C@H](NC(=O)[C@H](C)NC(=O)CNC(=O)[C@H](CC(C)C)NC(=O)[C@@H](N)Cc1ccccc1)C(=O)N[C@@H](Cc1ccccc1)C(=O)N[C@@H](CCCCN)C(=O)N[C@H](C(=O)N[C@@H](C)C(=O)N[C@@H](CO)C(=O)N[C@@H](CCCCN)C(=O)N[C@H](C(=O)O)C(C)C)C(C)C: > 156 µM

Need MIC of `CC[C@H](C)[C@H](N)C(=O)N[C@@H](CCCN=C(N)N)C(=O)N[C@@H](CCCN=C(N)N)C(=O)N[C@H](C(=O)N[C@H](C(=O)N[C@@H](CCCN=C(N)N)C(=O)N[C@@H](CCCCN)C(=O)N[C@H](C(=O)N[C@H](C(=O)N[C@@H](Cc1cnc[nH]1)C(=O)N[C@H](C(=O)N[C@H](C(=O)N[C@@H](CCCCN)C(=O)N[C@@H](CCCCN)C(=O)O)[C@@H](C)CC)[C@@H](C)CC)[C@@H](C)CC)[C@@H](C)CC)[C@@H](C)CC)[C@@H](C)CC` , thanks.
> 11.1 µM

---

Measured MIC (Candida albicans ATCC 10231)

Take a look at these entries with their results.
• CC(C)C[C@H](NC(=O)CNC(=O)[C@H](Cc1ccc(O)cc1)NC(=O)[C@H](Cc1cnc[nH]1)NC(=O)[C@@H]1CCCN1C(=O)[C@H](CC(C)C)NC(=O)[C@H](CCC(=O)O)NC(=O)[C@H](Cc1ccccc1)NC(=O)[C@H](Cc1cnc[nH]1)NC(=O)[C@H](CO)NC(=O)[C@@H](N)CCCCN)C(=O)O = > 500 µM
• CSCC[C@H](NC(=O)[C@H](C)NC(=O)[C@H](C)NC(=O)[C@@H]1CCCN1C(=O)[C@H](CO)NC(=O)[C@@H](N)CC(C)C)C(=O)N[C@@H](C)C(=O)N[C@@H](CO)C(=O)N[C@@H](CC(C)C)C(=O)N[C@@H](C)C(N)=O = > 200 µM

Continue with the next compound.
Need MIC of `CC[C@H](C)[C@H](NC(=O)CNC(=O)[C@H](CO)NC(=O)[C@H](CC(C)C)NC(=O)[C@@H](NC(=O)[C@H](CCCN=C(N)N)NC(=O)CNC(=O)[C@@H](NC(=O)[C@H](CC(C)C)NC(=O)[C@@H]1CCCN1C(=O)[C@H](CC(C)C)NC(=O)[C@H](C)N)[C@@H](C)CC)C(C)C)C(=O)N[C@@H](CC(C)C)C(N)=O` , thanks.
> 40 µM
